- System: HOP-62 NSCLC
- test name: NCI-60 one-dose screen, 48 h (100 = growth as untreated, 0 = no growth, -100 = all killed)
- measurement setup: 10 µM unless noted
This is part of a sample that, as a whole, favours compounds with a hit. Of some 83,000 tested, about 20% had one in any assay.
Category scheme (growth): low class = under 70%, middle class = from 70% up to 90%, high class = 90% and over

                            structure_string  discrete_label
 0  COC(=O)/C=C1\S/C(=N\Nc2ccc([N+](=O)[O-])cc2[N+](=O)[O-])N(C2CCCCC2)C1=O    middle class
 1             COc1ccc(-c2conc2-c2ccccc2)cc1       low class
 2  CN1CCN(c2ccc(-c3ccc4ncc(C#N)c(Nc5ccc(F)c(Cl)c5)c4c3)cc2)CC1       low class
 3       CC(=O)c1ccc(Nc2nc(C(C)=O)c(C)s2)cc1      high class
 4  CN1C(=O)CNC(=O)[C@H](NC(=O)c2nc3ccccc3cc2O)CSSC[C@H]1C(=O)NCCCc1nc2ccccc2cc1O    middle class
 5  COc1cc(C(=O)c2cnc(-c3c[nH]c4cccc(C)c34)[nH]2)cc(OC)c1OC       low class
 6  COc1cc(Nc2cn[nH]c2-c2ccc(Cl)cc2)cc(OC)c1OC       low class
 7  NCCCNc1nc2ccccc2c2c(=O)c3cc(C(F)(F)F)ccc3sc12       low class
 8  CCOC(=O)/C(C#N)=C\Nc1ccc2ncnc(Nc3ccc(Cl)cc3Cl)c2c1      high class
 9  COc1cccc2c(=O)c3c(sc12)c(NCCCN)nc1ccccc13       low class
10              NC(=O)C1(Nc2ccc(Br)cc2)CCCC1      high class
11  c1ccc2cc(C[n+]3ccn(CCCCCCCCCCCCn4cc[n+](Cc5ccc6ccccc6c5)c4)c3)ccc2c1       low class
12  CCCCCCn1c(-c2ccc(C(=O)O/N=C(\N)c3ccc4ccccc4c3)cc2)nc(-c2ccccc2)c1-c1ccccc1    middle class
13  COc1ccccc1/C=C1\Oc2cc(OCCN3CCC(Cc4ccccc4)CC3)ccc2C1=O      high class
14  CN(C)CC#Cc1ccc2ncc(C#N)c(Nc3ccc(F)c(Cl)c3)c2c1       low class

----------
Measured growth accompanies every entry in the list below.
- Test system: DU-145 prostate
- test name: NCI-60 one-dose screen, 48 h (100 = growth as untreated, 0 = no growth, -100 = all killed)
- measurement setup: 10 µM unless noted
The panel holds about 83,000 compounds, 20% with a hit somewhere; the sample as a whole holds those more often.
measure name: growth (%)

>>> print(df.to_string())
                                    molecule  readout_number
 0  CC1=C(C)C(=O)C(Nc2cccc(C(=O)OC(C)(C)C)c2)=C(Br)C1=O             109
 1  CN1CCN(c2ccc(-c3cc4c(Nc5ccc(F)c(Cl)c5)ncnn4c3)cn2)CC1            58.1
 2               CCCCOc1ccc(/C=N/NC(N)=S)cc1            95.6
 3            O=c1[nH][n+](-c2ccc(Br)cc2)no1            57.9
 4      O=C(CSc1nc2ccccc2[nH]1)Nc1cccc(Cl)c1             101
 5              NC(=O)C1(Nc2ccc(Br)cc2)CCCC1             119
 6  COc1ccc(N2C(=O)C(Oc3ccccc3)C2c2ccc(C)cc2)cc1 (stereo unspecified)             113
 7  O=C1COCCN1c1ccc(NCc2cn(C(=O)c3ccc(Cl)cc3)c3ccccc23)cc1            84.2
 8  O=C1CSC(c2c(Cl)cccc2Cl)N1c1nc(Cl)cc(=O)[nH]1 (stereo unspecified)             123
 9  Cc1cccc2c1S/C(=C/c1ccc([N+](=O)[O-])cc1)C2=O             106
10  O=C(O)C(c1ccccc1)N1C(=O)CSC1=S (stereo unspecified)             107
